These entries and their values trace back to PubChem BioAssay (NCI).

test system: SN12C renal; assay: NCI-60 one-dose screen, 48 h (100 = growth as untreated, 0 = no growth, -100 = all killed); conditions: 10 µM unless noted
About 83,000 compounds went through this panel and 20% of them were active in at least one assay; those are over-represented in the sample as a whole.
endpoint: growth (%)

- O=C(Nc1nc2ccc(C(F)(F)F)cc2s1)c1cc(Cl)ccc1O: 9.78
- CCSc1nc(Cl)c(C#N)c(-c2ccc(F)cc2)n1: 95.4
- C#Cc1ccccc1NC(=O)c1sc2nc3c(cc2c1N)CCCCC3: 98.2
- COc1cc2c(cc1OC)C(Sc1ccc(Cl)cc1)c1c(nc(N)c(C#N)c1N)O2 (stereo not given): 1.66
- COCCOC(=O)COc1ccc(OC)cc1: 99.7
- C=C1C(=O)O[C@H]2[C@H]1CC/C(COC(=O)c1cn(C)c3ccccc13)=C\CC[C@@]1(C)O[C@@H]21: -40.3
- c1ccc2c3c([nH]c2c1)C(c1ccc(C2NCCc4c2[nH]c2ccccc42)cc1)NCC3 (stereo not given): 41.6
- COc1cc(-c2cn(-c3ccc(Cl)c(Cl)c3)c(=O)[nH]2)cc(OC)c1OC: 87.5
- COc1ccc2nc(-c3ccc(Cl)cc3)cc(C(=O)N3N=C(c4ccc(N)cc4)CC3c3ccccc3)c2c1 (stereo not given): 57.8
- NC(=O)CN1C(=O)c2ccccc2C1=O: 97.7

* * *

Each entry below lists one item and its recorded growth value.
test system: OVCAR-4 ovarian; assay: NCI-60 one-dose screen, 48 h (100 = growth as untreated, 0 = no growth, -100 = all killed); conditions: 10 µM unless noted
The panel holds about 83,000 compounds, 20% with a hit somewhere; the sample as a whole holds those more often.
endpoint: growth (%)

* COc1ccc(C2CC(c3ccc(OC)cc3O)=NN2c2ccc(S(N)(=O)=O)cc2)cc1 (stereo not given) | 42.3
* N#Cc1c(-c2ccc(Cl)cc2)cc(-c2cc3ccccc3o2)nc1SCC(=O)c1ccc(Cl)cc1 | 104
* O=C(/C(=C/c1ccc([N+](=O)[O-])cc1)SCc1ccccc1)c1ccc(Cl)cc1 | 74.5
* CCCCc1n(Cc2ccc3ccccc3n2)cc[n+]1Cc1ccc2ccccc2c1 | 28.6
* S=c1ssnc1-c1cc2ccccc2o1 | 83.2
* COC(=O)/C=C1\SC(=Nc2cccc(OC)c2)N(CCc2c[nH]c3ccccc23)C1=O | 69.7
* FC(F)(F)c1ccc2c(Nc3cccc(C4CC(c5ccccc5)=NN4c4ccc(Cl)cc4)c3)ccnc2c1 (stereo not given) | 66.6
* CCCn1c(N)c(C(N)=O)sc1=S | 111
* CCC1S/C(=N\N=C(/C)c2ccc[nH]2)N(c2ccccc2)C1=O (stereo not given) | 104
* C#Cc1cccc(Nc2ncnc3ccc(NC(=O)c4ccccc4)cc23)c1 | 80.4

* * *

tested on: HS 578T breast; test: NCI-60 one-dose screen, 48 h; conditions: 10 µM unless noted
This is part of a sample that, as a whole, favours compounds with a hit. Of some 83,000 tested, about 20% had one in any assay. The source made the active and inactive calls. Rule for the calls: active = growth percent below 10; inactive = the rest.
Outcome codes: active, inactive

- CC(=O)Nc1c(C(=O)Nc2ccccc2)sc2nc3c(cc12)C(OC(C)=O)CCC3 (stereo not given): inactive
- CNc1cccc2c1C(=O)c1cccc(N)c1C2=O: inactive
- COc1cc(NCC(=O)Nc2cc(Nc3cccc(C(F)(F)F)c3)ncn2)c(Cl)c(OC)c1Cl: inactive
- C#C[C@@]1(O)[C@@H](CO)O[C@@H](n2cc(I)c3c(N)ncnc32)[C@@H]1O: active
- NCCN1CCNCC1: inactive
- C#CCN1C(=O)c2ccccc2N(CC#C)C12CCN(Cc1cn(CC(=O)Nc3ccccc3C(N)=O)nn1)CC2: inactive
- CC1(C)CC[C@]2(c3nnc(-c4ccncc4)o3)CC[C@]3(C)C(=CC[C@@H]4[C@@]5(C)CCC(=O)C(C)(C)[C@@H]5CC[C@]43C)[C@@H]2C1: inactive
- CCCCc1n(Cc2ccc3ccccc3n2)cc[n+]1Cc1ccc2ccccc2c1: inactive
- COc1ccc(C2CC(c3ccc(OC)cc3O)=NN2c2ccc(S(N)(=O)=O)cc2)cc1 (stereo not given): inactive
- Cc1cc(O)cc(O)c1N=NC1=NCCS1: inactive
- CNC(=O)c1cc(Oc2ccc3c(c2)sc2nc(-c4ccc(NC(C)=O)cc4)cn23)ccn1: inactive
- C[C@]12CC[C@@H]3c4ccc(O)cc4CC[C@H]3[C@@H]1C[C@H](O)C2: inactive
- O=Cc1[nH]c(Sc2ccccc2)c2ccccc12: inactive
- CCOCc1cc(C(C)(C)C)ccc1O: inactive
- CCOC(=O)c1c(C)nc2c(c1N)/C(=C/c1ccccn1)C(=O)N2Cc1ccccc1: inactive
- Nc1n[nH]c2cccc(C#Cc3cccc(NC(=O)c4cc(N5CCOCC5)cc(C(F)(F)F)c4)c3)c12: inactive
- Cc1cccc2nc3c(n12)C(=O)C(=O)c1ccccc1-3: inactive
- O=CN1N=C(c2ccc(Cl)cc2)CC1c1cccc(Nc2ccnc3cc(C(F)(F)F)ccc23)c1 (stereo not given): inactive
- N#Cc1c(NC(=O)c2cccs2)[n+]([O-])c2cc(C(F)(F)F)ccc2[n+]1[O-]: inactive
- Cc1cccc(C)c1NCc1nnc(-c2ccco2)o1: inactive
- CC(=O)OCC1SC(OC(C)=O)C(NC(=O)/C=C/CCl)C(OC(C)=O)C1OC(C)=O (stereo not given): inactive
- C#CCN(CCCOc1ccc(Cl)cc1Cl)CCCSC(=O)CCCCCN1/C(=C\C=C2/CCCC(/C=C/C3=[N+](CCCCCC(=O)[O-])c4ccccc4C3(C)C)=C2Cl)C(C)(C)c2ccccc21: active
- COC1=CC=CC2(OC)C3(O)CCCc4cccc(c43)N3C(=O)COC132 (stereo not given): inactive
- COc1cc(C2=NN(C=O)C(c3cccc(Nc4ccnc5cc(C(F)(F)F)ccc45)c3)C2)cc(OC)c1OC (stereo not given): inactive
- CSc1nc(-c2cccs2)c2c(N)[nH]nc2n1: inactive
- COC(=O)/C=C1\SC(=Nc2cccc(Cl)c2)N(CCc2c[nH]c3ccccc23)C1=O: inactive
- Cc1nc2sc(C(=O)Nc3cccc4ccccc34)c(N)c2cc1C(C)O (stereo not given): inactive
- COc1ccc(/C=C(/C(=O)N2CCCC2)c2cc(OC)c(OC)c(OC)c2)cc1: inactive
- CCCCc1nc(Cl)c(C2CC(c3ccc(Cl)cc3)=NN2c2cc(Cl)cc(Cl)c2)[nH]1 (stereo not given): inactive
- O=[N+]([O-])c1ccc(Oc2ccc(-c3ccccc3)cc2)cc1: inactive
- CCCS(=O)(=O)Nc1ccc(F)c(C(=O)c2c[nH]c3ncc(-c4ccc(OCCCC5CCCCN5)nc4)cc23)c1F (stereo not given): active
- COc1ccc(C(=S)c2cc(OC)c(OC)c(OC)c2)cc1OC(=O)CCl: inactive
- Nc1ccc2c(c1)C(=O)C(=O)c1c-2nc2ccccn12: active
- O=C(Nc1nc(-c2ccccc2Cl)cs1)c1cc(-c2ccc(Br)cc2)nc2ccccc12: inactive
- CC(C)(C)c1ccc(O)c(Cc2cc(C(C)(C)C)ccc2O)c1: inactive
- Nc1c(C(=O)Nc2ccccn2)sc2nc3c(cc12)CCCCCC3: inactive
- Cc1c(Br)cccc1NC(=O)c1sc2nc3c(cc2c1N)CN(Cc1ccccc1)CC3: inactive
- CN(CCC#N)C(=O)Nc1ccccc1: inactive
- CNCc1cccc2c1OCCOCCOCCN(CCN1CCOCC1)S(=O)(=O)c1ccc(cc1)-c1cnc(N)c(n1)C(=O)N2: inactive
- Oc1c(CCl)cc(Cl)cc1Cc1cc(Cl)cc(Cc2cc(Cl)cc(CCl)c2O)c1O: inactive
